target: T1, recombinant YFV E protein (soluble E, sE; YFV Asibi strain) (Yellow fever virus, Asibi strain, UniProt Q6DV88 286-678); assay: BLI monovalent (IgG on tip)
T1 construct: also called YFV E antigen; YFV E monomer
T1 sequence (Q6DV88 286-678): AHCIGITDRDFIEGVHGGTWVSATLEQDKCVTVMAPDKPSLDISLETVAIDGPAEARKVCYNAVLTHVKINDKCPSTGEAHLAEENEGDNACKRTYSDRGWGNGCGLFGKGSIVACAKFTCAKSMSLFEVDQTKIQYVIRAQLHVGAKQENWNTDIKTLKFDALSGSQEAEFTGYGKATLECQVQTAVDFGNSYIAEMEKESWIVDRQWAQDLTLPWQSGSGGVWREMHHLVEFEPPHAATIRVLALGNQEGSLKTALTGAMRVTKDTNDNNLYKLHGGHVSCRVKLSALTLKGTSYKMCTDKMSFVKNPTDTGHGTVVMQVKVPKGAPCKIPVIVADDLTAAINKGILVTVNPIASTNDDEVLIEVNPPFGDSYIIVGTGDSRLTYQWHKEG
pKd: −log10 of the molar value.
Classification field: y = pKd at or over 8; n = pKd under 8.

## Input Please indicate if the recorded pKd for ADI-42830 (antibody, V domains shown, full-length IgG; also called Antibody Number 37) VH: EVQLLESGPGLVRPSGTLSLTCAVSGASISSNHWWTWVRQPPGKGLEWIGEIYHSGSPTYNPSLKSRVTISVDKSKNQFSLKLNSVTAADTAVYYCASTLWGGPLSVASDYWGQGTLVTVSS VL: QSVLTQPPSVSAAPGQKVTISCSGSSSNIGNYYVSWYQQVPGTAPKLLIYDNNKRPSGIPDRFSGSKSGTSATLGITGLHTGDEAEYYCGTWDSSPSAGRVFGGGTKLTVL meets or exceeds 8.
## Output y

## Input Please indicate if the recorded pKd for ADI-48968 (antibody, V domains shown, full-length IgG; also called Antibody Number 98) VH: EVQLLESGGGLGQPGGSLRLSCVASKFTFSDHYMDWVRQAPGKGLEWVGRIRNKPNGYTTEYAASVKGRFIISRDDSKNSLYLQMKSLKIEDTAIYYCVRVWGGEAARYDYWGQGALVTVSS VL: DIRLTQSPSSLSASVGDRVTITCRASQDIRKFLNWYQQKLGKAPSLLIYGASSLQSGVPSRFSGSGSGTDFTLTISSLQPEDFAIYYCQHASTTPWTFGQGTKVEIK meets or exceeds 8.
## Output y

## Input Please indicate if the recorded pKd for ADI-49140 (antibody, V domains shown, full-length IgG) VH: EVQLVESGGGLVQPGGSLRLSCAASGFTFSDHYMDWVRQAPGRGLEWVGRSRNKVNSYTTDYAASVKGRFTISRDDSKNSLFLRMNSLKTEDTAVYYCARLTDSGYDDWGLGTLVTVSS VL: QPELTQPPSVSVSPGQTARITCSGDALSKQYAYWYQQKPGQAPVVVIYKDSERPSGIPERFSGSRSGTTVTLTISGVQAEDEADYYCHSPDSHVVFGGGTKLTVL meets or exceeds 8.
## Output y

## Input Please indicate if the recorded pKd for ADI-49141 (antibody, V domains shown, full-length IgG; also called Antibody Number 89) VH: EVQLQESGPGLVKPSGTLSLTCAVSGGSISSSNWWTWVRQPPGKGLEWIGEIYHSGSTNYNPSLESRVTMSVDKSKNQFSLKLSSVTAADTAVYYCARVQTSHSELWFGEFGADWGQGTLVTVSS VL: DIVMTQSPATLSVSPGERATLSCRASQSVSSNLAWYQQKPGQAPRLLIYGASTRATGIPARFSGSGSGTEFTLTISSLQSEDFAVYSCQQYNTWPKTFGQGTKVEIK meets or exceeds 8.
## Output n

## Input Please indicate if the recorded pKd for ADI-42225 (antibody, V domains shown, full-length IgG; also called Antibody Number 10) VH: QVQLQESGPGLVKPSGTLSLTCAVSGGSITSSNWWSWVRQPPGKGLEWIGDIYHSGSTSYNPSLKSRVTISVDKSKNHFSLKLTSVTAADTAVYYCARIAAGYSTSWYYFDYWGQGTLVTVSS VL: QSALTQPPSVSAAPGQKVTISCSGSSSNIGNSYVSWYQQVPGTAPKLLIYDNNKRPSGIPDRFSGSKSGTSATLGITGLQAGDEADYYCGTWDTSLSAGRVFGRGTKLTVL meets or exceeds 8.
## Output n

## Input Please indicate if the recorded pKd for ADI-45085 (antibody, V domains shown, full-length IgG; also called Antibody Number 57) VH: EVQLVESGGGLVQPGGSLRLSCAASGFTFSSYAMSWVRQAPGKGLEWVSTFSGRGGSTYYADFVKGRFTISRDNSKNTLYLQMNSLRAEDTAVYYCAKYYDSSGYYYFDYWGQGTLVTVSS VL: DIQLTQSPSTLSASVGDRVTITCRASQSISTWLAWYQQKPGKAPKLLIYRASSLESGVPSRFSASGSGTEFTLSISSLQPDDFATYYCKQYNRNPYTFGQGTKVEIK meets or exceeds 8.
## Output n

## Input Please indicate if the recorded pKd for ADI-42211 (antibody, V domains shown, full-length IgG; also called Antibody Number 58) VH: QVQLVESGGGVVQPGRSLRLSCGGSGFTFSSYGMHWVRQAPGKGLEWVAVISYDGSKKYSADSVKGRFTISRDNSKNTLYLQMNSLRAEDTAVYYCAKGSVSVAGAEDYWGQGTLVTVSS VL: DIQMTQSPSSLSASVGDRVTITCRASQGISSYLAWFQQKPGKVPKLLIYAASTLQSGVPSRFSGSGSGTDFTLTISSLQPEDVATYYCQKYNSAPQTFGQGTKVDIK meets or exceeds 8.
## Output y

## Input Please indicate if the recorded pKd for ADI-42201 (antibody, V domains shown, full-length IgG; also called Antibody Number 25) VH: EVQLVESGGGVVQPGRSLRLSCVASGFTLRSYGMHWVRQVPGKGLEWVAVSWYDGSNKHYADSVKGRFSISRDNSKNTLYLQMNSLRAEDTAVYYCARAQDGQQLVNYYGMDVWGQGTTVTVSS VL: DIQMTQSPSSLSASVGDRVTITCRASQSISSYLNWYQQKPGEAPNLLIFAASILQSGVPSRFSGSGSGTDFTLTISSLQPEDFATYYCQQSYSTPYTFGQGTKVEIK meets or exceeds 8.
## Output n

## Input Please indicate if the recorded pKd for ADI-42227 (antibody, V domains shown, full-length IgG) VH: EVQLLESGAEVKEPGSSVKVSCKPSGGTFSSYVISWVRQAPGQGLEWMGGIIPIFGTPNYAQKFQGRVTITADDSTSTAHMELSSLTSDDTAVYYCARETYYYGSGSVPVHDWGQGTLVTVSS VL: EIVMTQSPSSLSASVGDRVTITCRASQGIRNDLGWYQQKPGKAPKRLIYAASSLQSGVPSRFSGSGSGREFTLTISSLQPEDFATYYCLQHNTYPWTFGQGTKVEIK meets or exceeds 8.
## Output y
